Recorded values, source paper PMC6724035.

Assay Method Text: in vivo
Study Conditions: mouse, muscle, iv, 40 pmol, Uptake, muscle, 3 h after injection; 40 pmol i.v.
Where a SMILES comes first, the peptide text is derived from it. [ ]: non-standard residue; d: D form. Tyr(3-I) = N[C@@H](Cc1ccc(O)c(I)c1)C(=O)O; Sta = CC(C)C[C@H](N)[C@@H](O)CC(=O)O; AEEA = NCCOCCOCC(=O)O
Measured tissue uptake at 3 h by item
Give a bare numeral; the unit %ID/g is implied.

Query string: Any idea what its tissue uptake at 3 h is? The compound is CC(C)C[C@H](NC(=O)C[C@H](O)[C@H](CC(C)C)NC(=O)[C@H](Cc1c[nH]cn1)NC(=O)CNC(=O)[C@@H](NC(=O)[C@H](C)NC(=O)[C@H](Cc1c[nH]c2ccccc12)NC(=O)[C@H](CCC(N)=O)NC(=O)[C@@H](Cc1ccccc1)NC(=O)COCCOCCNC(=O)CN1CCN(CC(=O)O)CCN(CC(=O)O)CCN(CC(=O)O)CC1)C(C)C)C(N)=O [[^111In]In-DOTA-PEG2-RM26, metal not drawn, reference compound]
Result string: 0.02

Next:
Query string: Any idea what its tissue uptake at 3 h is? The compound is CC(C)C[C@H](NC(=O)C[C@H](O)[C@H](CC(C)C)NC(=O)[C@H](Cc1c[nH]cn1)NC(=O)CNC(=O)[C@@H](NC(=O)[C@H](C)NC(=O)[C@H](Cc1c[nH]c2ccccc12)NC(=O)[C@H](CCC(N)=O)NC(=O)[C@@H](Cc1ccccc1)NC(=O)COCCOCCNC(=O)[C@@H](N)Cc1ccc(O)c(I)c1)C(C)C)C(N)=O [[^125I]I-Tyr-PEG2-RM26] (H-[Tyr(3-I)][AEEA][dF]QWAVGH[Sta]L-NH2)
Result string: 0.6

====

Assay Method Text: in vivo
Study Conditions: mouse, kidney, iv, 40 pmol, Uptake, kidney, 3 h after injection; 40 pmol i.v.
Where a SMILES comes first, the peptide text is derived from it. [ ]: non-standard residue; d: D form. Tyr(3-I) = N[C@@H](Cc1ccc(O)c(I)c1)C(=O)O; Sta = CC(C)C[C@H](N)[C@@H](O)CC(=O)O; AEEA = NCCOCCOCC(=O)O
Assay Readout: tissue uptake at 3 h (%ID/g)
Give a bare numeral; the unit %ID/g is implied.

Query string: Any idea what its tissue uptake at 3 h is? The molecule is CC(C)C[C@H](NC(=O)C[C@H](O)[C@H](CC(C)C)NC(=O)[C@H](Cc1c[nH]cn1)NC(=O)CNC(=O)[C@@H](NC(=O)[C@H](C)NC(=O)[C@H](Cc1c[nH]c2ccccc12)NC(=O)[C@H](CCC(N)=O)NC(=O)[C@@H](Cc1ccccc1)NC(=O)COCCOCCNC(=O)CN1CCN(CC(=O)O)CCN(CC(=O)O)CCN(CC(=O)O)CC1)C(C)C)C(N)=O [[^111In]In-DOTA-PEG2-RM26, metal not drawn, reference compound]
Result string: 2.4

Let us move to another entry and its tissue uptake at 3 h.
Query string: Any idea what its tissue uptake at 3 h is? The molecule is CC(C)C[C@H](NC(=O)C[C@H](O)[C@H](CC(C)C)NC(=O)[C@H](Cc1c[nH]cn1)NC(=O)CNC(=O)[C@@H](NC(=O)[C@H](C)NC(=O)[C@H](Cc1c[nH]c2ccccc12)NC(=O)[C@H](CCC(N)=O)NC(=O)[C@@H](Cc1ccccc1)NC(=O)COCCOCCNC(=O)[C@@H](N)Cc1ccc(O)c(I)c1)C(C)C)C(N)=O [[^125I]I-Tyr-PEG2-RM26] (H-[Tyr(3-I)][AEEA][dF]QWAVGH[Sta]L-NH2)
Result string: 6.1

====

Assay Method Text: in vivo
Study Conditions: female, BALB/c nu/nu, mouse, tumour and whole blood, iv, total radioactivity
Where a SMILES comes first, the peptide text is derived from it. [ ]: non-standard residue; d: D form. Tyr(3-I) = N[C@@H](Cc1ccc(O)c(I)c1)C(=O)O; Sta = CC(C)C[C@H](N)[C@@H](O)CC(=O)O; AEEA = NCCOCCOCC(=O)O
Assay Readout: tissue to tissue ratio at 0.5 h
Answer field: number only, no words.

Query string: Any idea what its tissue to tissue ratio at 0.5 h is? The molecule is CC(C)C[C@H](NC(=O)C[C@H](O)[C@H](CC(C)C)NC(=O)[C@H](Cc1c[nH]cn1)NC(=O)CNC(=O)[C@@H](NC(=O)[C@H](C)NC(=O)[C@H](Cc1c[nH]c2ccccc12)NC(=O)[C@H](CCC(N)=O)NC(=O)[C@@H](Cc1ccccc1)NC(=O)COCCOCCNC(=O)[C@@H](N)Cc1ccc(O)c(I)c1)C(C)C)C(N)=O [[^125I]I-Tyr-PEG2-RM26] (H-[Tyr(3-I)][AEEA][dF]QWAVGH[Sta]L-NH2)
Result string: 0.7

====

Assay Method Text: in vivo
Study Conditions: female, BALB/c nu/nu, mouse, tumour and pancreas, iv, total radioactivity
Where a SMILES comes first, the peptide text is derived from it. [ ]: non-standard residue; d: D form. Tyr(3-I) = N[C@@H](Cc1ccc(O)c(I)c1)C(=O)O; Sta = CC(C)C[C@H](N)[C@@H](O)CC(=O)O; AEEA = NCCOCCOCC(=O)O
Assay Readout: tissue to tissue ratio at 0.5 h
Answer field: number only, no words.

Query string: Any idea what its tissue to tissue ratio at 0.5 h is? The molecule is CC(C)C[C@H](NC(=O)C[C@H](O)[C@H](CC(C)C)NC(=O)[C@H](Cc1c[nH]cn1)NC(=O)CNC(=O)[C@@H](NC(=O)[C@H](C)NC(=O)[C@H](Cc1c[nH]c2ccccc12)NC(=O)[C@H](CCC(N)=O)NC(=O)[C@@H](Cc1ccccc1)NC(=O)COCCOCCNC(=O)[C@@H](N)Cc1ccc(O)c(I)c1)C(C)C)C(N)=O [[^125I]I-Tyr-PEG2-RM26] (H-[Tyr(3-I)][AEEA][dF]QWAVGH[Sta]L-NH2)
Result string: 0.7
